Recorded measurements of Percent Effect, one per entry
# measured.target: Sialic acid-binding Ig-like lectin 9 (Homo sapiens)
# assay.overview: Hs-Siglec9 ALPHAscreen SOP 20170721
# Parameters: scale not given: direction of the effect not stated beside the values
# details: 10 µM

The measured Percent Effect associated with CC(OCC(F)(F)F)C(=O)N1CCCCC1 (stereo unspecified) reads -2.51%

The measured Percent Effect associated with Cn1ncc2c1NC(=O)CC2c1ccc(Cl)cc1Cl (stereo unspecified) reads 1.29%

The measured Percent Effect associated with CC(NC(=O)N1CCC(n2cncn2)CC1)c1ccc(F)cc1F (stereo unspecified) reads 7.75%

The value of Percent Effect measured for the molecule CNC(=O)[C@@H]1C[C@H]2CN(C(=O)c3ccco3)C[C@H]2N1C turned out to be 4.75%

Percent Effect in this record for COc1c(CNCCNC(=O)c2ccco2)c(C)nn1C : 0.652%

Item: Cc1cc(N2CCCN(C(=O)Cc3ccc(O)c(Cl)c3)CC2)ccn1 | Percent Effect: 6.51%

Data point: O=C(COCC1CC1)N1CCCC(n2cncn2)C1 (stereo unspecified) ; Percent Effect = -7.81%

So, CCC1=N[C@@]2(CC[C@@H]3CN(S(=O)(=O)CC(C)C)C[C@@H]32)C(=O)N1C ? Its Percent Effect was 2.43%

Please fill in: Percent Effect reported for CCOc1ccc(NC(=O)c2cnc(N3CCCC3)nc2C)cc1 = -0.674%

Cn1ccnc1CC1CCCN(C(=O)Nc2cccn(C)c2=O)C1 (stereo unspecified) yielded Percent Effect of 6.3%

Entry under test: CSc1nccn1-c1cccc(C(=O)NCCCN2CCOCC2)c1 . Its Percent Effect was -6.16%

###

We begin with a simple list: items and their reported Percent Effect.
# Test system: Trypanosoma cruzi
# assay.overview: Trypanosoma cruzi phosphomannomutase and mannose-1-phosphate guanylyltransferase assay
# Type: functional
# Set-up: scale not given: direction of the effect not stated beside the values
# details: 10 µM
Give the value in % but do not write % after it.

As a guide, the following entries are already answered.
- compound: "COc1ncccc1C(=O)N1CCC(c2nnc(C3CC3)o2)CC1"
  numeric.readout: -5.82
- compound: "Cc1nc(-c2ccccc2)sc1C(=O)NCCNc1ncccn1"
  numeric.readout: -7.94
- compound: "CC(=O)N(Cc1ncc(C)o1)C1CCN(Cc2noc(C)n2)C1 (configuration not stated)"
  numeric.readout: 6.76
- compound: "COc1cccc2cc(CNC(=O)N3CCCC(O)C3)oc12 (configuration not stated)"
  numeric.readout: 8.59
- compound: "COCCC(=O)Nc1ccnc(Oc2ccccc2)c1"
  numeric.readout: -6.91
- compound: "CCN(CC)C(CNS(=O)(=O)c1ccc(C(=O)NC)cc1)c1ccco1 (configuration not stated)"
  numeric.readout: -5.47
- compound: "CCNC(=O)CN1CCCN(C(=O)C2CCCc3[nH]ncc32)CC1 (configuration not stated)"
  numeric.readout: 1.66
- compound: "c1cncc(COCc2nnc3n2CCN(Cc2ccsc2)C3)c1"
  numeric.readout: -2.26

Reported Percent Effect for c1ccc(C2CCCN2Cc2nnnn2C2CC2)cc1 (configuration not stated) was -3.01

Record summary for COCc1cc(NCCc2ccc(F)cc2)n2nccc2n1 : reported Percent Effect = -0.196

Percent Effect recorded for this compound, CC(c1nc(C2CC2)no1)N1CCN(Cc2ccccc2F)CC1 (configuration not stated) , is -0.718

Briefly, Percent Effect measured for O=C(C1CCN(c2snc3ccccc23)CC1)N1CCCCCC1 : -0.923

Cited source: ChEMBL document CHEMBL3988442
